- SYSTEM: Mitochondrial sodium/calcium exchanger protein (Homo sapiens)
- Sequence (Q6J4K2 whole entry): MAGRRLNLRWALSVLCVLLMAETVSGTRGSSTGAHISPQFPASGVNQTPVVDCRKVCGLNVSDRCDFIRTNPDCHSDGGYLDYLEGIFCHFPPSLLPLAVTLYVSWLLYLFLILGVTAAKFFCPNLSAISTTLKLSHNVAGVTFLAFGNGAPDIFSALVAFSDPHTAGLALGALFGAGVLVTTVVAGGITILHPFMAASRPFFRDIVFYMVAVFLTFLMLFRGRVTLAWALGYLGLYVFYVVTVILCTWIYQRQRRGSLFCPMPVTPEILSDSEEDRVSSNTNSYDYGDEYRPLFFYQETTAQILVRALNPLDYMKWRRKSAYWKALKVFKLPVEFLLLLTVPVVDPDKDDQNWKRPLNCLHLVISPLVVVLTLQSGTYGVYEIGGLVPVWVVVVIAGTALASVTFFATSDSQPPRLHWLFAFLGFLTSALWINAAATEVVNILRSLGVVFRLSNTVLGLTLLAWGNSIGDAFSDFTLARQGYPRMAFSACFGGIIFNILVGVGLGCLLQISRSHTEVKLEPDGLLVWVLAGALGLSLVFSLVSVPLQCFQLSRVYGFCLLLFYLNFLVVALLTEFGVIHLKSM
- PROTOCOL TEXT: Inhibition of mitochondrial sodium/calcium exchanger (unknown origin)
MEASURED PARAMETER: IC50 (nM)
API: value field is a number in nM; no unit string.

Ask: Look up IC50 with Mitochondrial sodium/calcium exchanger protein (Homo sapiens) for this molecule: O=C1CSC(c2ccccc2Cl)c2cc(Cl)ccc2N1 (stereo unspecified)
Result: 1600
